test: Water solubility at 25° C. of zoledronic acid-HPβCD complexes and zoledronic acid monohydrate; format: physicochemical

compound	solubility
O=P(O)(O)C(O)(Cn1ccnc1)P(=O)(O)O [Zoledronic acid monohydrate, zoledronic acid monohydrate]	< 7000 µg/mL
